ASSAY CONTEXT: in n-octanol, 278.15 K
READOUT: solubility (mole fraction)
// response body must contain only the number

Lookup: Please give the measured solubility (mole fraction) for this compound: CCCSc1nc(N[C@@H]2C[C@H]2c2ccc(F)c(F)c2)c2nnn([C@@H]3C[C@H](OCCO)[C@@H](O)[C@H]3O)c2n1
Found: 0.00233

* * *

ASSAY CONTEXT: in 2-butanone, 288.15 K
READOUT: solubility (mole fraction)
// response body must contain only the number

Lookup: Please give the measured solubility (mole fraction) for this molecule: CCCSc1nc(N[C@@H]2C[C@H]2c2ccc(F)c(F)c2)c2nnn([C@@H]3C[C@H](OCCO)[C@@H](O)[C@H]3O)c2n1
Found: 0.038
